molecular target: mGluR5 (Homo sapiens); test: inhibition of the glutamate induced elevation of intracellular Ca2+ concentration; conditions: read-out: mGluR5 Activity inh. at 10 μM [%]
Sequence (P41594 21-1180 isoform P41594-2 limits assumed): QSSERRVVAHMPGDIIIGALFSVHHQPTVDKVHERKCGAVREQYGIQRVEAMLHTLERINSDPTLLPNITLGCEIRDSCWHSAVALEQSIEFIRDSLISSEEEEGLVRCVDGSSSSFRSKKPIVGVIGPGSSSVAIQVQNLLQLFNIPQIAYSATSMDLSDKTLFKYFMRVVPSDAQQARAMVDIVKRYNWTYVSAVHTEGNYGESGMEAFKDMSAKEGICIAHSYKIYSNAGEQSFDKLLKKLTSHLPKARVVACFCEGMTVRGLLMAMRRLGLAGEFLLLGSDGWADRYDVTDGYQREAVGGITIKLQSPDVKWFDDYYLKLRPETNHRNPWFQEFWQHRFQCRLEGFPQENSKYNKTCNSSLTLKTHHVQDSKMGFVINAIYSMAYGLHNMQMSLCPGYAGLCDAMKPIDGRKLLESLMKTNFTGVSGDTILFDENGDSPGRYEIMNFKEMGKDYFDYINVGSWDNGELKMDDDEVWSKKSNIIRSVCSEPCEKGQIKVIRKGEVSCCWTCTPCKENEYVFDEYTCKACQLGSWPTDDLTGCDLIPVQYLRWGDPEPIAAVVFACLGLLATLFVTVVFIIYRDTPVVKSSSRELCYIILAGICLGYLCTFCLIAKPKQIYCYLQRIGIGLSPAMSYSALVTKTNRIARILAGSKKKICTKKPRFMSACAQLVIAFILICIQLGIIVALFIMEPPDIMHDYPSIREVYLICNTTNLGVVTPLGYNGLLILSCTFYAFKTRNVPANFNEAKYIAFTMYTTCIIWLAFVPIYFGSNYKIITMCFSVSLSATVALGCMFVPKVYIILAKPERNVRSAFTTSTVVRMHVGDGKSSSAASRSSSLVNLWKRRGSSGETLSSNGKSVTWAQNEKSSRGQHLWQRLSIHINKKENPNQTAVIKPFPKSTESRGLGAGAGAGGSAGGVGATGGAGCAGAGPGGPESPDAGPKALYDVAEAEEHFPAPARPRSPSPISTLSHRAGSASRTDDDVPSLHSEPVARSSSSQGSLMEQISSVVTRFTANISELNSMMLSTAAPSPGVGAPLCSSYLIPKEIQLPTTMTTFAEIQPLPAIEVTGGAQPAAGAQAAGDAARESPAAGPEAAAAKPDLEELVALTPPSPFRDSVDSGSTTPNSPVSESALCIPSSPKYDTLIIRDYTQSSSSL
Test Readout: inhibition at 10 µM (%)
Please reply with the bare figure in % and do not write the unit itself.

Solved entries:
CCC[C@@H]1CCC[C@@H](CC)N1C(=O)c1cnc(Nc2ccc(C)nc2)c(Cl)c1    96
CCC(CC)C1OCCCN1C(=O)c1cnc(Nc2ccc(C)nc2)c(Cl)c1 (stereo not shown)    99
Cc1ccc(Nc2ncc(C(=O)N3CCCC[C@H]3C(C)C)cc2Cl)cn1    96

Attention now shifts to the item below.
State recorded inhibition at 10 µM with mGluR5 (Homo sapiens), entry `O=C(c1ccc(Nc2ccc(Cl)cc2)nc1)N1CC2CCC(CC2)C1` , no comment.
37

Hey, just so you know, these numbers are from patent US20090005363A1.
